- tgt: Mast/stem cell growth factor receptor Kit (Homo sapiens, UniProt P10721)
- Sequence (P10721 whole entry): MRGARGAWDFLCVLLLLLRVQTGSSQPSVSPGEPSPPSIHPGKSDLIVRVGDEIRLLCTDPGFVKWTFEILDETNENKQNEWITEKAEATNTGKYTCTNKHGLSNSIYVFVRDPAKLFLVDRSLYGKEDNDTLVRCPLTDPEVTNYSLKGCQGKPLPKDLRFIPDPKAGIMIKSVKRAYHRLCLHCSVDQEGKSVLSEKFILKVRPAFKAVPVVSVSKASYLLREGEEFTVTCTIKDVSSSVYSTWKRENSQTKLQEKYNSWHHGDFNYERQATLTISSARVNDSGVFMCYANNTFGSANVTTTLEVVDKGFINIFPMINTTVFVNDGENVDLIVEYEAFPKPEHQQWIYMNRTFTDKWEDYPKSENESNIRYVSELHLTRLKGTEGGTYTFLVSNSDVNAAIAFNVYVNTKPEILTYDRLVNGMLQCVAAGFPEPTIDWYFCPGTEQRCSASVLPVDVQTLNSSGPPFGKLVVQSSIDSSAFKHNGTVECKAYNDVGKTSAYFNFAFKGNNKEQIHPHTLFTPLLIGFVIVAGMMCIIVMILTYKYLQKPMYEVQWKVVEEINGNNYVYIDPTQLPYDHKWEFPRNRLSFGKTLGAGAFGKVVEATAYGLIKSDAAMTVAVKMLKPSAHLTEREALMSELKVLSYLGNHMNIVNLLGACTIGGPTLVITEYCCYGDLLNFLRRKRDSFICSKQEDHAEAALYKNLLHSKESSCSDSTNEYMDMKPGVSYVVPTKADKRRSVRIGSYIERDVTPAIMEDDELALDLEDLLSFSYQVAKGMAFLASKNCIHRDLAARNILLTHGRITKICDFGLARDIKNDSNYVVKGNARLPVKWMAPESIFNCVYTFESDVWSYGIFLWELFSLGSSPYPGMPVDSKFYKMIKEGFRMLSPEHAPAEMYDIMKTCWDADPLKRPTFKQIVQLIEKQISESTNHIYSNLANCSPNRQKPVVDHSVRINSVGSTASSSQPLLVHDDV
assay-endpoint: IC50 (nM)
All answers are understood in nM, so give the number only.

# IC50 measured on Mast/stem cell growth factor receptor Kit (Homo sapiens, UniProt P10721) for item COc1cc2c(Oc3ccc(NC(=O)c4cn(-c5ccccc5Cl)nn4)cc3F)ccnc2cc1OCCCN1CCCCC1 = 9.36

---

- tgt: Vascular endothelial growth factor receptor 2 (Homo sapiens, UniProt P35968)
- Sequence (P35968 whole entry): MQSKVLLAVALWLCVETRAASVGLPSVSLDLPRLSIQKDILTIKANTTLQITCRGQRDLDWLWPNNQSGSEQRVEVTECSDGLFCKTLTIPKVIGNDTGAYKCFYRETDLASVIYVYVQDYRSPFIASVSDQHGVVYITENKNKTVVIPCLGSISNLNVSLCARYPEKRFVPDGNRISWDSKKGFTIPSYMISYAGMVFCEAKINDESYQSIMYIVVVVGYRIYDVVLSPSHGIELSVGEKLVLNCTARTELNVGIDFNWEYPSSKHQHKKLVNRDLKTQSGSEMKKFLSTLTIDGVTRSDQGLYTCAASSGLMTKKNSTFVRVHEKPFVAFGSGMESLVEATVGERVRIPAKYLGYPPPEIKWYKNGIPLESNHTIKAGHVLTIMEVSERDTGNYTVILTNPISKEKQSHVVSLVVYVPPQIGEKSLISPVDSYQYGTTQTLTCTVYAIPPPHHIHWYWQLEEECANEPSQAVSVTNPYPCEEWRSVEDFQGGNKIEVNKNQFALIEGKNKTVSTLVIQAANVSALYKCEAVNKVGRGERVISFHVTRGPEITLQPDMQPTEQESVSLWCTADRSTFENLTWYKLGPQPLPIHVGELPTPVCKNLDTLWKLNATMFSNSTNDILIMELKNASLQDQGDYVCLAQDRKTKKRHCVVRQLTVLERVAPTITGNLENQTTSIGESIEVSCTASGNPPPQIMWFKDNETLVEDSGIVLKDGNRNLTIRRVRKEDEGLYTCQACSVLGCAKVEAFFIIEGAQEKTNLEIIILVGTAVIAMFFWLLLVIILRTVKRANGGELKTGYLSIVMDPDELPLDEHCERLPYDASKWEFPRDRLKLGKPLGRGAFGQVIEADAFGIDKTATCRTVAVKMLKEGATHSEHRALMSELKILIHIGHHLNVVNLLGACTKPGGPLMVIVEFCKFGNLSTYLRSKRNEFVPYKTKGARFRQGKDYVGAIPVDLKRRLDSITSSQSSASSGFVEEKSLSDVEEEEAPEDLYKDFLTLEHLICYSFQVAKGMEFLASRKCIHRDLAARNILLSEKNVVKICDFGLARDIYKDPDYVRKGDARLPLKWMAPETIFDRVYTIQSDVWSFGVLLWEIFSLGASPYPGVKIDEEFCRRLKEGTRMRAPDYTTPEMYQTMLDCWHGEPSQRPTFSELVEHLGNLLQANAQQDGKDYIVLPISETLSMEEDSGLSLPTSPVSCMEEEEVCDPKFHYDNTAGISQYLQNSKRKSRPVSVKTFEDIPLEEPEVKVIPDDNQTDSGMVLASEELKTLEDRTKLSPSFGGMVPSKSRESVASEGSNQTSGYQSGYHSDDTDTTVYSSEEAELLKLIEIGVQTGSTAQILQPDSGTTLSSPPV
assay-endpoint: IC50
Quote the value and follow it with the unit of measurement.

IC50 on Vascular endothelial growth factor receptor 2 (Homo sapiens, UniProt P35968) for COc1cc2c(Oc3ccc(NC(=O)c4cn(-c5ccccc5Cl)nn4)cc3F)ccnc2cc1OCCCN1CCCCC1 is 96.7 nM
